- study-target: Glutamate NMDA receptor; Grin1/Grin2b (Rattus norvegicus, UniProt P35439+Q00960)
- Sequence (Q00960 whole entry, other chains not shown): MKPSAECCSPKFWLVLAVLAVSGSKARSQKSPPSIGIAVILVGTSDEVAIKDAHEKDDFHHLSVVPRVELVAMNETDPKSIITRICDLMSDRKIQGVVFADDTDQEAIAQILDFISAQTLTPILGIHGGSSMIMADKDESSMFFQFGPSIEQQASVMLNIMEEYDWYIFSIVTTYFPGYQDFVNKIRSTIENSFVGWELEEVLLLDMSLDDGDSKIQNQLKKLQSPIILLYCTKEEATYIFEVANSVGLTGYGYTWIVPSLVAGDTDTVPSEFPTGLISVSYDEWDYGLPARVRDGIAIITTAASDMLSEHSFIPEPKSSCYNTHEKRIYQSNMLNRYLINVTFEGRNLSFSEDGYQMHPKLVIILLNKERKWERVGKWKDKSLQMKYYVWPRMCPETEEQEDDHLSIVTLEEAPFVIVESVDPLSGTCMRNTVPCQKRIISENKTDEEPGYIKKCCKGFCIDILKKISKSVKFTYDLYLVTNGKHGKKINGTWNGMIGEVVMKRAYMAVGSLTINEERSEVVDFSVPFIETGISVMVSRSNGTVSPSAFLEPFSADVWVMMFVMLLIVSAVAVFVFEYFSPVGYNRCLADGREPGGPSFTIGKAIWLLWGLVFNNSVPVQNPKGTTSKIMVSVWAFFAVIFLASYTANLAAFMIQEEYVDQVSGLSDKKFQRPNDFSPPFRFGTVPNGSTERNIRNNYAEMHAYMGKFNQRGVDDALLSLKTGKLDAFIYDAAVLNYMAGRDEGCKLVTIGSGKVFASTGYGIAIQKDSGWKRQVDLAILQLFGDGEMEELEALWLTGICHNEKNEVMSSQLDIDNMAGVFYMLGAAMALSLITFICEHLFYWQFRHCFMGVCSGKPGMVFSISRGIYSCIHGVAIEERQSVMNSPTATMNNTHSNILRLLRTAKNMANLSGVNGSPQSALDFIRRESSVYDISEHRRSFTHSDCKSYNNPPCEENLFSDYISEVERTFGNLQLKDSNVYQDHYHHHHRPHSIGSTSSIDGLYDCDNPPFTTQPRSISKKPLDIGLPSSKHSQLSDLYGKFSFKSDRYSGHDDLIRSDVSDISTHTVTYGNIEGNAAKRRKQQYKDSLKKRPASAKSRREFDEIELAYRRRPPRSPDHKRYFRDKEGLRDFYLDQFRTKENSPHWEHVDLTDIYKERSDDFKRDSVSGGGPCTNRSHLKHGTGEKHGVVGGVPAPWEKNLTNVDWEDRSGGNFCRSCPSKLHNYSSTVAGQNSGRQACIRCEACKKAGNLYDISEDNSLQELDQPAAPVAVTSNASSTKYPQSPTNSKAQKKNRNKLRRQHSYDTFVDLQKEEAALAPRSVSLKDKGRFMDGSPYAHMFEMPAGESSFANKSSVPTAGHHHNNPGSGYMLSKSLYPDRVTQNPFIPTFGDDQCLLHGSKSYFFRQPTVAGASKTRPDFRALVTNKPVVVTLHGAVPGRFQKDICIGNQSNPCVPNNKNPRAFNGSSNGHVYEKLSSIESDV
- protocol-notes: Antagonistic activity against rat NR1A/2B receptor expressed in Xenopus oocytes
- Format: functional, cell-based, Oocyte
Would you kindly list pIC50 for each of these compounds?
Answers are plain numbers, as −log10 of the molar value.

{"smiles-notation": "Oc1ccc(C#CCN2CCC(Cc3ccccc3)CC2)cc1", "study-target": "Glutamate NMDA receptor; Grin1/Grin2b (Rattus norvegicus, UniProt P35439+Q00960)", "pIC50": 7.00}
{"smiles-notation": "Nc1ccc(C#CCCN2CCC(Cc3ccc(Cl)cc3)CC2)cc1", "study-target": "Glutamate NMDA receptor; Grin1/Grin2b (Rattus norvegicus, UniProt P35439+Q00960)", "pIC50": 5.92}

Lab note: each compound below needs its pIC50 filled in.
1. Clc1cccc(C#CCCN2CCC(Cc3ccccc3)CC2)c1
2. Nc1ccc(C#CCCN2CCC(Cc3ccc(F)cc3)CC2)cc1
3. Clc1ccccc1C#CCCN1CCC(Cc2ccccc2)CC1

## Result
1: 5.42; 2: 6.59; 3: 5.92

Field: pIC50. Fill in for each record below.
1. Nc1ccccc1C#CCCN1CCC(Cc2ccccc2)CC1
2. Nc1ccc(C#CCCN2CCC(O)(Cc3ccccc3)CC2)cc1
3. Cc1ccc(C#CCCN2CCC(Cc3ccccc3)CC2)cc1
4. COc1ccc(C#CCCN2CCC(Cc3ccccc3)CC2)cc1

## Result
[5.96, 6.08, 5.38, 5.59]

Go through the items and report each one's pIC50.
1. Nc1ccc(C#CCCN2CCC(O)(Cc3ccc(F)cc3)CC2)cc1
2. Nc1cccc(C#CCCN2CCC(Cc3ccccc3)CC2)c1
3. Nc1ccc(C#CCCCN2CCC(Cc3ccccc3)CC2)cc1

## Result
1. 6.19
2. 5.96
3. 6.42

====

- study-target: Glutamate NMDA receptor; Grin1/Grin2c (Rattus norvegicus, UniProt P35439+Q00961)
- Sequence (Q00961 whole entry, other chains not shown): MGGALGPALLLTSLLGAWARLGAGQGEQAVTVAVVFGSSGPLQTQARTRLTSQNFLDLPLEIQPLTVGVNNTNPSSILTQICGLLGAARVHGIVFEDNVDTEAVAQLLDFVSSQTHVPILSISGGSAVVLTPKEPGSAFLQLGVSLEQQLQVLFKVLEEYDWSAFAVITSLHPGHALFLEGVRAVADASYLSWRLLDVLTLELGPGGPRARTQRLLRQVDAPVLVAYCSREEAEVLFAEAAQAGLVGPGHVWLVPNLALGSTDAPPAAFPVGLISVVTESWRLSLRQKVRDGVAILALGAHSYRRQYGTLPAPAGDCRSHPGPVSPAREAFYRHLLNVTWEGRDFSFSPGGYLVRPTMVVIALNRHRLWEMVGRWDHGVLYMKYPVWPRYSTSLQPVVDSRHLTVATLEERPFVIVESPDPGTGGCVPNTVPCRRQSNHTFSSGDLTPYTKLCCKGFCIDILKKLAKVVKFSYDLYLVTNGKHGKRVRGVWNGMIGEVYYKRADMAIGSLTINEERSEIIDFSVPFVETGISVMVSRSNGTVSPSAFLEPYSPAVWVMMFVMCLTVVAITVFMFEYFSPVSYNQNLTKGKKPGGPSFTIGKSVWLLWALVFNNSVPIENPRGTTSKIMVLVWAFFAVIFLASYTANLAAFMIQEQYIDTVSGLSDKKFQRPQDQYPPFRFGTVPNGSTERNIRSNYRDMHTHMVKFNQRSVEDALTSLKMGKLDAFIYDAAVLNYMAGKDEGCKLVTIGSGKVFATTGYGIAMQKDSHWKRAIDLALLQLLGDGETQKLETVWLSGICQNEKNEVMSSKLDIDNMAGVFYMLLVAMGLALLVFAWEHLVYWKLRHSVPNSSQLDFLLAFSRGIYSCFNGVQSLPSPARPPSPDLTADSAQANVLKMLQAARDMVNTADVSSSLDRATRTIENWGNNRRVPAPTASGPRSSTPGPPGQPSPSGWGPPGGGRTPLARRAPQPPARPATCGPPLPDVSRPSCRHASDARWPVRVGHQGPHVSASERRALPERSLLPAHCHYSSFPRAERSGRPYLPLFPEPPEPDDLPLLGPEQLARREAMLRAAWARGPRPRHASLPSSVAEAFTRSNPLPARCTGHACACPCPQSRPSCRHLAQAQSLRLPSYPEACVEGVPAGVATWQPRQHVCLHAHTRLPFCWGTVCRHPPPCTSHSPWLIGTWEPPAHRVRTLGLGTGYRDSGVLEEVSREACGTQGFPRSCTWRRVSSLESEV
- protocol-notes: Antagonistic activity against rat N-methyl-D-aspartate glutamate receptor 1/2C expressed in Xenopus oocytes
- Type: functional, cell-based, Oocyte
Assignment: determine reported IC50 for the given compounds.

{"smiles-notation": "CS(=O)(=O)Nc1ccc(C#CCCCN2CCC(Cc3ccccc3)CC2)cc1", "study-target": "Glutamate NMDA receptor; Grin1/Grin2c (Rattus norvegicus, UniProt P35439+Q00961)", "IC50": "> 100 µM"}
{"smiles-notation": "NC(=O)c1ccc(C#CCCN2CCC(Cc3ccccc3)CC2)cc1", "study-target": "Glutamate NMDA receptor; Grin1/Grin2c (Rattus norvegicus, UniProt P35439+Q00961)", "IC50": "> 100 µM"}
{"smiles-notation": "CS(=O)(=O)Nc1ccc(C#CCN2CCC(Cc3ccccc3)CC2)cc1", "study-target": "Glutamate NMDA receptor; Grin1/Grin2c (Rattus norvegicus, UniProt P35439+Q00961)", "IC50": "> 100 µM"}
{"smiles-notation": "CN(C)c1ccc(C#CCCN2CCC(Cc3ccccc3)CC2)cc1", "study-target": "Glutamate NMDA receptor; Grin1/Grin2c (Rattus norvegicus, UniProt P35439+Q00961)", "IC50": "> 100 µM"}
{"smiles-notation": "CS(=O)(=O)Nc1ccc(C#CCCN2CCC(Cc3ccccc3)CC2)cc1", "study-target": "Glutamate NMDA receptor; Grin1/Grin2c (Rattus norvegicus, UniProt P35439+Q00961)", "IC50": "> 100 µM"}

Dear colleague, could you send me IC50 for each of the items below? Thanks.
1. CNc1ccc(C#CCCN2CCC(Cc3ccccc3)CC2)cc1
2. CC(=O)Nc1ccc(C#CCCN2CCC(Cc3ccccc3)CC2)cc1
3. NCc1cccc(C#CCCN2CCC(Cc3ccccc3)CC2)c1
4. CC(=O)Nc1ccc(C#CCN2CCC(Cc3ccccc3)CC2)cc1
5. NS(=O)(=O)c1ccc(C#CCCN2CCC(Cc3ccccc3)CC2)cc1
6. CC(=O)Nc1ccc(C#CCCCN2CCC(Cc3ccccc3)CC2)cc1

## Result
> 100 µM
> 100 µM
> 100 µM
> 100 µM
> 100 µM
> 100 µM

Origin of values: ChEMBL document CHEMBL1132273
